- Test system: Aspergillus niger
- assay comment: Antifungal activity against Aspergillus niger assessed as zone of inhibition at 25 ug/ml measured after 24 hrs by well diffusion method
- Type: functional
- condition context: read-out: IZ
Quick reference for zone of inhibition at 25 µg/mL among some molecules
metric: zone of inhibition at 25 µg/mL

{"columns": ["molecule", "assay value"],
 "data": [
  ["Cc1ccc(-c2csc(N/N=C/c3cccs3)n2)cc1", "6 mm"],
  ["Clc1ccc(/C=N/Nc2nc(-c3ccccc3)cs2)c(Cl)c1", "8 mm"],
  ["C(=N\\Nc1nc(-c2ccccc2)cs1)/c1cccs1", "6 mm"],
  ["OC(Cn1cncn1)(Cn1cncn1)c1ccc(F)cc1F [FLUCONAZOLE]", "14 mm"],
  ["COC(=O)c1cc(-c2csc(N/N=C/c3cccs3)n2)ccc1OCc1ccccc1", "6 mm"],
  ["Clc1ccc(-c2csc(N/N=C/c3ccc(Cl)cc3Cl)n2)cc1", "12 mm"],
  ["COc1ccc(-c2csc(N/N=C/c3ccc(Cl)cc3Cl)n2)cc1", "6 mm"],
  ["Cc1ccc(-c2csc(N/N=C/c3ccc(Cl)cc3Cl)n2)cc1", "6 mm"],
  ["Fc1ccc(-c2csc(N/N=C/c3ccc(Cl)cc3Cl)n2)cc1", "6 mm"],
  ["COC(=O)c1cc(-c2csc(N/N=C/c3ccc(Cl)cc3Cl)n2)ccc1OCc1ccccc1", "6 mm"],
  ["Clc1ccc(-c2csc(N/N=C/c3cccs3)n2)cc1", "6 mm"],
  ["Fc1ccc(-c2csc(N/N=C/c3cccs3)n2)cc1", "6 mm"]
]}

Attribution: ChEMBL document CHEMBL4052736
